- Read-out: CD40, CD40 (gene 958)
- ASSAY_OVERVIEW: BSK_SAg_CD40: BioMAP Diversity Plus: SAg Assay for CD40 Biomarker Activity (AID 2283088)
- CONDITION_PARAMETERS: primary human HUVEC with PBMC; actives raise or lower the signal
Activity calls are given as the source filed them. The calls were made as follows: active = hit-call score of the fitted dose curve at least 0.9, where 1 is the maximum; inactive = score below 0.9.
# output must be one of active, inactive

*Q* Lab log entry: CCOP(=S)(OCC)SCn1c(=O)oc2cc(Cl)ccc21 — outcome as called in the assay?
*A* inactive

*Q* What call does the record list for N#Cc1nn(-c2c(Cl)cc(C(F)(F)F)cc2Cl)c(N)c1S(=O)C(F)(F)F (stereo unspecified) ?
*A* active

*Q* Given CO/C=C(/C(=O)OC)c1ccccc1Oc1cc(Oc2ccccc2C#N)ncn1 , state the outcome it received in this test.
*A* active

*Q* Called result for COC(=O)c1ccccc1C(=O)OC
*A* inactive

*Q* Hi, do you know how CC1=C(C(=O)Nc2ccccc2)SCCO1 came out in this test?
*A* inactive

*Q* Dear colleague, could you share the recorded outcome for CCOC(=O)CC(SP(=S)(OC)OC)C(=O)OCC (stereo unspecified) when you have a moment?
*A* inactive

*Q* # lookup: test call for CCON=C(CC)C1=C(O)CC(c2c(C)cc(C)cc2C)CC1=O (stereo unspecified)
*A* inactive

*Q* # outcome recorded in this test, key = CCOC(=O)C(Cl)Cc1cc(-n2nc(C)n(C(F)F)c2=O)c(F)cc1Cl (stereo unspecified)
*A* inactive

*Q* Could you check what this test reported for OC(c1ccc(Cl)cc1)(c1cncnc1)c1ccccc1Cl (stereo unspecified) ?
*A* active

*Q* Could you please tell me the result logged for COc1nc(C)nc(NC(=O)NS(=O)(=O)c2ccccc2CCC(F)(F)F)n1 in this assay?
*A* inactive

*Q* Per the records of this test, what outcome belongs to Cc1c(F)c(F)c(COC(=O)C2C(/C=C(\Cl)C(F)(F)F)C2(C)C)c(F)c1F (stereo unspecified) ?
*A* active

Attribution: PubChem BioAssay (EPA / NIEHS)
